Data origin: PubChem BioAssay (NCI)

System: 786-0 renal
Experiment description: NCI-60 one-dose screen, 48 h
Test conditions: 10 µM unless noted
About 83,000 compounds went through this panel and 20% of them were active in at least one assay; those are over-represented in the sample as a whole. Calls of active or inactive are those of the source. How the source made its calls: active means growth percent below 10; inactive means the rest.
Write down the outcome that applies. Available outcomes: class 1 for active, class 0 for inactive

Incoming: Please let me know the test result on file for CCn1cnc(C[C@H](NC(=O)[C@@H](NC(=O)Nc2cc(C(F)(F)F)cc(C(F)(F)F)c2)C(C)(C)C)C(=O)OC)c1 .
Outgoing: class 1

Incoming: Per the records of this test, what outcome belongs to CCCCCCCCCCC(C[N+](C)(C)C/C=C/c1ccccc1)C(O)c1ccccc1 (configuration not stated) ?
Outgoing: class 1

Incoming: I'd appreciate the recorded outcome for O=C(/C=C1\C(=O)N(Cc2ccccc2)c2ccccc21)c1ccc(OCCN2CCCCC2)cc1 from this test.
Outgoing: class 1

Incoming: Lab log entry: C/C=C(/C)C(=O)OC1C=C(CO)C(=O)C(OC(=O)/C(C)=C\C)C1C(C)C (configuration not stated) — outcome as called in the assay?
Outgoing: class 1

Incoming: Can you look up the reported call for O=C1/C(=C\c2cn(-c3nc(N4CCOCC4)nc(N4CCOCC4)n3)c3ccccc23)c2ccccc2N1c1c(Cl)cccc1Cl for me?
Outgoing: class 0

Incoming: Short answer needed: outcome of this test for COc1cc(OC)cc(-c2ccc(-c3ccc(C(=N)N)cc3)s2)c1 ?
Outgoing: class 1

Incoming: Status in this test for O=C1C(=O)c2ccccc2C(O)=C1CCCc1ccc(C2CCCC2)cc1 ?
Outgoing: class 0

Incoming: Tell me the assay call for CCC1(CC)C(OC)NC(Br)=C(C#N)C1(C#N)C(N)=O (configuration not stated) please.
Outgoing: class 0

Incoming: How was CC(=N\N=C(N)N)/C(=N/N=C(N)N)c1ccccc1 classified in this test?
Outgoing: class 0

Incoming: Hi, do you know how COCn1c(C(=O)OC)cc2oc(/C=C3/SC(=S)N(N)C3=O)cc21 came out in this test?
Outgoing: class 0

Incoming: # outcome recorded in this test, key = O=C(Nc1cccc(Cn2c(=O)[nH]c3ccc(Oc4ncccn4)cc3c2=O)c1)c1cc(Cl)cc(Cl)c1
Outgoing: class 0

Incoming: Called result for Nc1nc2c(c3cnccc13)C(c1ccc(Cl)c(Cl)c1)Cc1cnccc1-2 (configuration not stated)
Outgoing: class 1

Incoming: What call does the record list for COc1cc2ncnc(-n3ncc4cc(NC(=O)Nc5ccc(Cl)c(C)c5)ccc43)c2cc1OC ?
Outgoing: class 0

Incoming: Fill in: this test's call for O=c1[nH]c2cc(O)ccc2n2cc3c(F)cccc3c12 is ___
Outgoing: class 0

Incoming: So what was the verdict on CCOc1nc(-c2ccccc2)cc2c(O)c(C(=O)N/N=C/c3ccccc3O)[nH]c(=O)c12 in this test?
Outgoing: class 0

Incoming: Lab log entry: CC1(C)C(O)NC(Cl)=C(C#N)C1(C#N)C#N (configuration not stated) — outcome as called in the assay?
Outgoing: class 0

Incoming: Status in this test for COc1cc(N)c2nccc(C)c2c1OC ?
Outgoing: class 0

Incoming: Which outcome was assigned to Oc1ccccc1/C=N/N=C\c1ccccc1Cl in this test?
Outgoing: class 0

Incoming: Test call, this compound: CC(O)CN(CC(C)O)N(CC(C)O)CC(C)O (configuration not stated)
Outgoing: class 0

Incoming: # lookup: test call for CC(=O)OC1/C=C\CC/C=C\C1 (configuration not stated)
Outgoing: class 0

Incoming: So what was the verdict on CC(=O)OCC1O[C@@H](OC(C)=O)[C@@H](NC(=O)NS(=O)(=O)c2ccccc2)C(OC(C)=O)[C@@H]1OC(C)=O (some centres not stated) in this test?
Outgoing: class 0

Incoming: Per the records of this test, what outcome belongs to COc1cc2c(c3c1c(=O)c1cccc(F)c1n3C)C=CC(C)(C)O2 ?
Outgoing: class 0

Incoming: Called result for O=C(O)c1ccc(Br)nc1
Outgoing: class 0

Incoming: Outcome logged for Cc1ccc(C(=O)Nc2ccc(CN3CCN(C)CC3)c(C(F)(F)F)c2)cc1C#Cc1cnc(N)c2ccc(C#N)cc12 in this assay:
Outgoing: class 1

Incoming: Call for entry CCS(=O)(=O)OCCO[C@H]1Cc2cc3ccc(=O)oc3cc2OC1(C)C :
Outgoing: class 0

Incoming: Each compound tested received a call. Report the one for Cc1ccc(C(=O)C(Br)C(Br)c2ccccc2)cc1 (configuration not stated) .
Outgoing: class 0

Incoming: Record request — test call for N#CC1=C(N2CCOCC2)NC2c3ccccc3Sc3ccccc3N2C1=N (configuration not stated)
Outgoing: class 0

Incoming: // return assay outcome for COc1ccc2cc(C(C)C(=O)Nc3ccc(S(=O)(=O)Nc4cc(C)on4)cc3)ccc2c1 (configuration not stated)
Outgoing: class 0

Incoming: Assay result, entry COc1cc2c(cc1OC)C(Cc1cc(OC)c(OC)cc1[N+](=O)[O-])=NCC2 — outcome?
Outgoing: class 0

Incoming: What was the test verdict on COC1=C(OC)C(=O)c2ccccc2C1=O ?
Outgoing: class 0

Incoming: Name the outcome recorded for O=C(/C=C/c1cccc(O)c1)c1cccc(-n2cc(-c3ccc(Cl)cc3)[nH]c2=O)c1 in the assay.
Outgoing: class 1

Incoming: Given CC([C@H]1CCC2C3CCC4C[C@@H](N)CC[C@]4(C)C3CC[C@@]21C)N(C)C (some centres not stated) , state the outcome it received in this test.
Outgoing: class 0

Incoming: Record request — test call for O=C1c2cc([N+](=O)[O-])ccc2-c2cc(Cl)c(NC(=O)C(F)(F)F)cc21
Outgoing: class 0

Incoming: For this compound, state the assay outcome: CCOC(=O)C1CCCN1C(=O)C1(NC(C)=O)CCCC1 (configuration not stated)
Outgoing: class 0

Incoming: Dear colleague, could you share the recorded outcome for CC[C@@H](C)/C=C(C)/C=C/C(=O)c1c(O)c(-c2ccc(OC(=O)[C@@]34CC[C@@](C)(C(=O)O3)C4(C)C)cc2)cn(O)c1=O when you have a moment?
Outgoing: class 1

Incoming: How did this test come out for Cc1cc2cn3c4ccc(O)cc4[nH]c(=O)c3c2cc1C ?
Outgoing: class 0

Incoming: Which outcome was assigned to CCCCCCCCC1OC1CCCCCCCC(=O)O (configuration not stated) in this test?
Outgoing: class 0

Incoming: Tell me the assay call for C=CCC(CCC(CC=C)C(=O)OCC)C(=O)OCC (configuration not stated) please.
Outgoing: class 0

Incoming: Tell me the recorded outcome of this test for CC(=O)Nc1ccc(CC#N)cc1Br .
Outgoing: class 0

Incoming: State the result this test recorded for Cc1cc(CSc2ccc(Cl)cc2)ccc1N .
Outgoing: class 0

Incoming: Hi, do you know how O=C(CN1C(=O)NC(c2ccccc2)(c2ccccc2)C1=O)c1ccc(N2CCCC2)cc1 came out in this test?
Outgoing: class 0

Incoming: Recorded test outcome, item Cc1cc2c(-c3nc4ccccc4n3C)c(O)c(O)cc2c(O)c1-c1c(C)cc2c(-c3nc4ccccc4n3C)c(O)c(O)cc2c1O
Outgoing: class 0

###

Test system: NCI-H522 lung
Experiment description: NCI-60 one-dose screen, 48 h
Test conditions: 10 µM
This is part of a sample that, as a whole, favours compounds with a hit. Of some 83,000 tested, about 20% had one in any assay. Activity calls are given as the source filed them. How the source made its calls: active means growth percent below 10; inactive means the rest.
# output must be one of active, inactive

Incoming: Hello, I am checking results. What call was entered for Clc1ccc(N/N=C(\c2ccccc2)c2ccccn2)nc1 ?
Outgoing: active

Incoming: Please let me know the test result on file for Nc1nc2c(c3cnccc13)C(c1ccc(Cl)c(Cl)c1)Cc1cnccc1-2 (stereo unspecified) .
Outgoing: active

Incoming: What did this assay record as the result for O=c1[nH]c(=S)[nH]c(O)c1/C=C1\C=Nc2ccccc21 ?
Outgoing: inactive

Incoming: Hi, sorry to bother you, what did the test record for COc1ccc(-c2nc(SCC(C)C)nc(Nc3ccc(C(=O)O)cc3)c2C#N)cc1 ?
Outgoing: inactive

Incoming: // outcome(item) with item = COc1cc(-c2cc3cnccc3c3nc(N)c4ccncc4c23)cc(OC)c1OC
Outgoing: inactive

Incoming: Answer briefly: the call reported for COc1cc(Cn2ccc3c2-c2oncc2CC3)cc(OC)c1 in this assay.
Outgoing: inactive

###

System: SN12C renal
Experiment description: NCI-60 one-dose screen, 48 h
Test conditions: 10 µM unless noted
The panel holds about 83,000 compounds, 20% with a hit somewhere; the sample as a whole holds those more often. Calls of active or inactive are those of the source. How the source made its calls: active means growth percent below 10; inactive means the rest.
// classify into active, inactive

Incoming: Would you mind telling me which call this test gave CSC1=Nc2c(c(C)c(-c3ccccc3)n2CCCCl)C2=NC(=O)CN12 ?
Outgoing: inactive

Incoming: Could you check what this test reported for COc1cccc(NC(=O)NCCNc2nccc(-c3c(-c4ccc(F)cc4)nc4sccn34)n2)c1 ?
Outgoing: inactive

Incoming: Could you kindly confirm the outcome this assay logged for C=C[C@]1(C)C=C2C(=O)[C@@]3(O)OC[C@@]4(CCCC(C)(C)C43O)C2(O)C(O)C1 (some centres undefined) ?
Outgoing: inactive

Incoming: Recorded call for CC1(C)CC(=O)C2=C(C1)Oc1nc(N)c(C#N)c(N)c1C2c1ccc(F)cc1 (centres undefined) ?
Outgoing: inactive

Incoming: Field: outcome | Entry: O=c1c(N=Nc2nccs2)c(-c2ccccc2)[nH]n1-c1nc(-c2ccccc2)cs1
Outgoing: inactive

Incoming: How did this test come out for CC(=O)OC1/C=C\CC/C=C\C1 (centres undefined) ?
Outgoing: inactive

Incoming: Per the records of this test, what outcome belongs to CCCCCCN(CCCCCC)CCC(=O)Nc1ccc(S(=O)(=O)c2ccc(NC(=O)CCN(CCCCCC)CCCCCC)cc2)cc1 ?
Outgoing: inactive

Incoming: Hi, do you know how COc1cc2ncnc(Nc3ccc4c(cnn4C(=O)Nc4ccccc4)c3)c2cc1OC came out in this test?
Outgoing: inactive

Incoming: Recorded test outcome, item CCC(C)C1NC(=O)C(CCCCN)NC(=O)C(CCCCN)NC(=O)C(CC(C)C)NC(=O)C(CCCCN)NC(=O)C(C(C)CC)NC(=O)C(C(C)C)NC(=O)C(C(C)CC)NC(=O)C(CCCCN)NC(=O)C(CCCCN)NC(=O)C(C)NC(=O)C(CCCCN)NC(=O)C(CC(C)C)NC1=O (centres undefined)
Outgoing: inactive

Incoming: Per the records of this test, what outcome belongs to N=c1c2c(=O)n3c(nc2nc2sc4ccc(Cl)cc4n12)-c1ccccc1Sc1ccccc1-3 ?
Outgoing: inactive

Incoming: For this compound, state the assay outcome: CCOC(=O)c1c(C)oc2ncnc(Nc3ccc(NC(=O)Nc4ccc(CC)cc4)cc3)c12
Outgoing: inactive

Incoming: For this compound, state the assay outcome: COc1ccc(C2=C/C(=C\c3ccc(Cl)cc3)C(=O)NN2C(=S)NN)cc1
Outgoing: inactive

Incoming: What outcome does the record of this test show for C=CN(C)S(C)(=O)=O ?
Outgoing: inactive

Incoming: Recorded call for Oc1ccccc1/C=N/N=C\c1ccccc1Cl ?
Outgoing: inactive

Incoming: Hello, I am checking results. What call was entered for CN1CCN(Cc2ccc(NC(=O)c3cncc(C#Cc4c(N)ncc5ccc(F)cc45)c3)cc2C(F)(F)F)CC1 ?
Outgoing: inactive

Incoming: What call does the record list for COc1cccc2c1nc1cccc(OC)c1[n+]2[O-] ?
Outgoing: inactive

Incoming: Kindly provide the recorded test outcome for the following compound: CC(C)OCC1CO1 (centres undefined)
Outgoing: inactive

Incoming: How did this test come out for COC(=O)/C=C/c1cc(O)c2oc(-c3ccc(O)c(O)c3)c(C(=O)OC)c2c1 ?
Outgoing: inactive

Incoming: Can you look up the reported call for C/C=C(/C)C(=O)OC1C=C(CO)C(=O)C(OC(=O)C2(C)OC2C)C1C(C)C (centres undefined) for me?
Outgoing: active
